Attribution: patent US20240174603A1

Test system: LNCaP cells
experimentDescription: LNCaP cell viability assay (MTS)
Format: cell-based
experimentalContext: LNCaP cell line, 48 hours
observable: GI50 (µM)

molecule: CN(C)CC(NS(=O)(=O)c1ccc(OC(F)(F)F)cc1)c1ccc(Cl)cc1 (single isomer, unassigned)
valueUnits: µM
GI50: 51.3
--
molecule: CN(C)CC(NS(=N)(=O)c1ccc(OC(F)(F)F)cc1)c1ccc(Cl)c(Cl)c1 (single isomer, unassigned) [Compound 165b]
valueUnits: µM
GI50: 53.8
--
molecule: CN(C)CC(NS(=O)(=O)c1ccc(OC(F)(F)F)c(Cl)c1)c1ccc(Cl)c(Cl)c1 (single isomer, unassigned)
valueUnits: µM
GI50: 21.6

a. CN(C)CC(NS(=O)(=O)c1ccc(OC(F)(F)F)cc1)c1cccc(C(F)(F)F)c1 (single isomer, unassigned) [Compound 177]
b. O=S(=O)(NC(CC1CC1)c1ccc(F)cc1Br)c1ccc(OC(F)(F)F)cc1 (single isomer, unassigned) [Compound 142b]
c. CN(C)CC(NS(=O)(=O)c1ccc(-c2ccccc2)cc1)c1ccc(Cl)c(Cl)c1 (single isomer, unassigned)
Put the items in order so that reported GI50 rises from first to last. Answer by writing out the labels in the requested order.
c, a, b
(c: 15.9 µM, a: 24.9 µM, b: 49.6 µM)

====

System: LNCaP cells
experimentDescription: LNCaP cell viability assay (MTS)
Type: cell-based
experimentalContext: LNCaP cell line, 48 hours
observable: GI50 (µM)

compound: O=S(=O)(NC(c1cc(Cl)cc(Cl)c1)C1CCCCC1)c1ccc(OC(F)(F)F)cc1 (single isomer, unassigned)
GI50 (µM): 21.3
//
compound: CCCc1ccc(S(=O)(=O)NC(CN(C)C)c2ccc(Cl)c(Cl)c2)cc1 (single isomer, unassigned)
GI50 (µM): 17.8

A. CN(C)CC(NS(=O)(=O)c1ccc(OC(F)(F)F)cc1)c1cccc(C(F)(F)F)c1 (single isomer, unassigned) [Compound 178]
B. CN(C)CC(NS(=O)(=O)c1ccc(Oc2ccc(C(F)(F)F)cc2)cc1)c1ccc(Cl)c(Cl)c1 (single isomer, unassigned) [Compound 172]
C. CN(C)CC(NS(=O)(=O)c1ccc(Oc2ccccc2)cc1)c1ccc(Cl)c(Cl)c1 (single isomer, unassigned)
D. O=S(=O)(NC(CN1CC2CC1CN2)c1ccc(Cl)c(Cl)c1)c1ccc(OC(F)(F)F)cc1 (single isomer, unassigned) [Compound 261b]
Rank the items in ascending order with respect to GI50. Output the labels ranked as instructed.
B, D, C, A
(B: 6.04 µM, D: 9.79 µM, C: 15.8 µM, A: 51.2 µM)

====

Tested on: LNCaP cells
experimentDescription: LNCaP cell viability assay (MTS)
Format: cell-based
experimentalContext: Homo sapiens, LNCaP, 48 h, LNCaP cell line
Protocol: LNCaP cell line was used for the cell viability assay. LNCaP cells were plated in 96-well plates at a density of 5000 cells per well. […] Relative cell numbers were analyzed after 48 hours using 3-(4,5-dimethylthiazol-2-yl)-5-(3-carboxymethoxyphenyl)-2-(4-sulfophenyl)-2H-tetrazolium (MTS) assay (Promega) according to the manufacturer's instructions. The cell viability data was analyzed with GraphPad Prism software. […]
observable: GI50 (µM)

Illustrative cases are given below, each with its answer.
compound: CN(C)CC(NS(=O)(=O)c1ccc(Nc2ccccc2)cc1)c1ccc(Cl)c(Cl)c1 (centres unmarked)
GI50 (µM): 13.6
//
compound: CN(C)CC(NS(=O)(=O)c1ccc(C(=O)Nc2ccccc2)cc1)c1ccc(Cl)c(Cl)c1 (centres unmarked)
GI50 (µM): 48.2
//
compound: CN(C)CC(NS(=O)(=O)c1ccc(Oc2ccc(C(F)(F)F)cc2)cc1)c1ccc(Cl)c(Cl)c1 (centres unmarked)
GI50 (µM): 10.2
//
compound: CN(C)CC(NS(=O)(=O)c1ccc(OC(F)(F)F)c([N+](=O)[O-])c1)c1ccc(Cl)cc1 (centres unmarked)
GI50 (µM): 1.77

1. CN(C)CC(NS(=O)(=O)c1ccc(Oc2ccccc2)cc1)c1ccc(Cl)c(Cl)c1 (centres unmarked) [Compound 138]
2. CC(C)(C)OC(=O)NC[C@@H](NS(=O)(=O)c1ccc(OC(F)(F)F)cc1)c1ccccc1
Dear colleague, could you let me know whether 1 or 2 has the lower recorded GI50? Thanks. Kindly give the label for the entry you pick.
1

A. COC(=O)CC(NS(=O)(=O)c1ccc(OC(F)(F)F)cc1)c1cccc(Br)c1 (centres unmarked)
B. CN(C)CC(NS(=O)(=O)c1cccc(OC(F)(F)F)c1)c1ccc(Cl)c(Cl)c1 (centres unmarked)
Just curious, which one has the larger GI50 reading, A or B ? Let me know the label of the one you choose.
A
(A: 66.5 µM, B: 21.1 µM)

P. O=S(=O)(NC(CN1CCNCC1)c1ccc(Cl)cc1)c1ccc(OC(F)(F)F)nc1 (centres unmarked)
Q. COc1ccc([C@@H]2[C@@H](CNS(=O)(=O)c3ccc(OC(F)(F)F)cc3)CCN2C)cc1 (racemic)
Return label of the item with the larger GI50. Candidates: P , Q . Let me know the label of the one you choose.
P
(P: 48.8 µM, Q: 24 µM)

a. CCOC(=O)C(CC1CC=CCC1)NS(=O)(=O)c1ccc(OC(F)(F)F)cc1 (centres unmarked)
b. COC(=O)C[C@H](NS(=O)(=O)c1ccc(OC(F)(F)F)cc1)c1cc(Cl)cc(Cl)c1
c. CN(C)CC(NS(=O)(=O)c1ccc(Oc2ccccc2)cc1)c1ccc(Cl)c(Cl)c1 (single isomer, unassigned) [Compound 170]
List from greatest to least GI50. # output: labels, in the requested order
a, b, c

====

System: LNCaP cells
experimentDescription: LNCaP cell viability assay (MTS)
Type: cell-based
experimentalContext: Homo sapiens, LNCaP, 48 h, LNCaP cell line
observable: GI50 (µM)

compound: COC(=O)C[C@@H](Cc1ccccc1)NS(=O)(=O)c1ccc(OC(F)(F)F)cc1
valueUnits: µM
GI50: 61.1

I. CC(CN(C)C)NS(=O)(=O)c1ccc(OC(F)(F)F)c([N+](=O)[O-])c1 (stereo not shown)
II. CCCc1ccc(S(=O)(=O)NC(CN(C)C)c2ccc(Cl)c(Cl)c2)cc1 (single isomer, unassigned) [Compound 199]
Form: Entry with minimum GI50 (choose one): I / II Select an item and report its label.
I

====

System: LNCaP cells
experimentDescription: LNCaP cell viability assay (MTS)
Assay type: cell-based
experimentalContext: Homo sapiens, LNCaP, 48 h, LNCaP cell line
observable: GI50 (µM)

Please review the entries below; each comes with its answer.
molecule: O=S(=O)(NCCNS(=O)(=O)c1cc(Br)ccc1Br)c1ccc(OC(F)(F)F)cc1 [Compound 3]
observable: GI50
experimentalValue: 24.6

molecule: CCOC(=O)C(Cc1cccc(Cl)c1)NS(=O)(=O)c1ccc(OC(F)(F)F)cc1 (stereo not shown) [Compound 15]
observable: GI50
experimentalValue: 49.6

molecule: CCOC(=O)CC(NS(=O)(=O)c1ccc(OC(F)(F)F)cc1)c1ccc(C)cc1 (stereo not shown) [Compound 24]
observable: GI50
experimentalValue: 44.2

molecule: CCn1nc(C(F)(F)F)cc1COCCNS(=O)(=O)c1ccc(OC(F)(F)F)cc1 [Compound 90]
observable: GI50
experimentalValue: 28

molecule: CC1CCCC(CNS(=O)(=O)c2ccc(OC(F)(F)F)cc2)(N(C)C)C1 (stereo not shown) [Compound 99]
observable: GI50
experimentalValue: 45

1. CN(C)CC(c1ccc(Cl)c(Cl)c1)N(C)S(=O)(=O)c1ccc(OC(F)(F)F)cc1 (stereo not shown) [Compound 250]
2. CN(C)CC(NS(=O)(=O)c1ccc(NC2CCCC2)cc1)c1ccc(Cl)c(Cl)c1 (stereo not shown) [Compound 251]
3. CN(C)CC(NS(=O)(=O)c1ccc(Oc2ccc(C(F)(F)F)cc2)cc1)c1ccc(Cl)cc1 (stereo not shown) [Compound 194]
4. CN(C)CC(NS(=O)(=O)c1ccc(OC(F)(F)F)cc1)c1ccc(Cl)cc1 (stereo not shown) [Compound 125]
Rank ascending by GI50. Please respond with the labels ordered as the question requires.
3, 2, 1, 4
(3: 12.2 µM, 2: 22.4 µM, 1: 39.6 µM, 4: 57 µM)

A. COc1ccc(CNCC(NS(=O)(=O)c2ccc(OC(F)(F)F)cc2)c2ccc(Cl)c(Cl)c2)cc1 (stereo not shown) [Compound 256]
B. CN(C)CC(NS(=O)(=O)c1cccc(-c2ccccc2)c1)c1ccc(Cl)c(Cl)c1 (single isomer, unassigned) [Compound 197]
C. CN(C)CC(NS(=O)(=O)c1ccc(C(=O)NC2CCCCC2)cc1)c1ccc(Cl)c(Cl)c1 (stereo not shown) [Compound 187]
D. CN(C)CC(NS(=O)(=O)c1ccc(OC2CCCCC2)cc1)c1ccc(Cl)c(Cl)c1 (stereo not shown) [Compound 209]
Hey, quick one: sort these by GI50, low to high? Could you list the labels in the order requested?
D, B, A, C

P. CC1CC1C(NS(=O)(=O)c1ccc(OC(F)(F)F)cc1)c1ccccc1 (stereo not shown) [Compound 103]
Q. CC(C)(C)Oc1ccccc1CNS(=O)(=O)c1ccc(OC(F)(F)F)cc1 [Compound 78]
Could you kindly indicate whether P or Q has the higher GI50 value? Answer = label.
Q
(Q: 46 µM, P: 20 µM)
